protocol_text: Therapeutic index, ratio of MHC for human RBC to geometric mean of peptide MIC for Escherichia coli ATCC 25922
Assay type: toxicity
setup_conditions: human red blood cells (RBC), read-out: TI
Where a SMILES comes first, the peptide text is derived from it.
readout_kind: selectivity ratio

Below: 3 compounds and their reported selectivity ratio.
CC[C@H](C)[C@H](N)C(=O)N[C@H](C(=O)N[C@H](C(=O)N[C@@H](CS)C(=O)N[C@@H](CCCNC(=N)N)C(=O)N[C@@H](CCCCN)C(=O)N1CCC[C@H]1C(=O)N[C@H](C(=O)N[C@H](C(=O)N[C@@H](CS)C(=O)N[C@@H](CCCNC(=N)N)C(=O)N[C@@H](CCCCN)C(=O)N1CCC[C@H]1C(=O)N[C@H](C(=O)N[C@H](C(=O)N[C@H](C(N)=O)[C@@H](C)CC)[C@@H](C)CC)[C@@H](C)CC)[C@@H](C)CC)[C@@H](C)CC)[C@@H](C)CC)[C@@H](C)CC (H-IIICRKPIICRKPIII-NH2): 6.35
CC[C@H](C)[C@H](N)C(=O)N[C@@H](CS)C(=O)N[C@@H](CCCNC(=N)N)C(=O)N[C@@H](CCCCN)C(=O)N1CCC[C@H]1C(=O)N[C@H](C(=O)N[C@H](C(=O)N[C@@H](CS)C(=O)N[C@@H](CCCNC(=N)N)C(=O)N[C@@H](CCCCN)C(=O)N1CCC[C@H]1C(=O)N[C@H](C(N)=O)[C@@H](C)CC)[C@@H](C)CC)[C@@H](C)CC (H-ICRKPIICRKPI-NH2): 2
CC(C)[C@H](N)C(=O)N[C@@H](CS)C(=O)N[C@@H](CCCNC(=N)N)C(=O)N[C@@H](CCCCN)C(=O)N1CCC[C@H]1C(=O)N[C@H](C(=O)N[C@H](C(=O)N[C@@H](CS)C(=O)N[C@@H](CCCNC(=N)N)C(=O)N[C@@H](CCCCN)C(=O)N1CCC[C@H]1C(=O)N[C@H](C(=O)N[C@H](C(=O)N[C@@H](CS)C(=O)N[C@@H](CCCNC(=N)N)C(=O)N[C@@H](CCCCN)C(=O)N1CCC[C@H]1C(=O)N[C@H](C(N)=O)C(C)C)C(C)C)C(C)C)C(C)C)C(C)C (H-VCRKPVVCRKPVVCRKPV-NH2): 6.35

# batch: return selectivity ratio for each of the 2 compounds below
1. CC[C@H](C)[C@H](N)C(=O)N[C@@H](CS)C(=O)N[C@@H](CCCNC(=N)N)C(=O)N[C@@H](CCCCN)C(=O)N1CCC[C@H]1C(=O)N[C@H](C(=O)N[C@H](C(=O)N[C@@H](CS)C(=O)N[C@@H](CCCNC(=N)N)C(=O)N[C@@H](CCCCN)C(=O)N1CCC[C@H]1C(=O)N[C@H](C(=O)N[C@H](C(=O)N[C@@H](CS)C(=O)N[C@@H](CCCNC(=N)N)C(=O)N[C@@H](CCCCN)C(=O)N1CCC[C@H]1C(=O)N[C@H](C(N)=O)[C@@H](C)CC)[C@@H](C)CC)[C@@H](C)CC)[C@@H](C)CC)[C@@H](C)CC (H-ICRKPIICRKPIICRKPI-NH2)
2. CC(C)[C@H](N)C(=O)N[C@@H](CS)C(=O)N[C@@H](CCCNC(=N)N)C(=O)N[C@@H](CCCCN)C(=O)N1CCC[C@H]1C(=O)N[C@H](C(=O)N[C@H](C(=O)N[C@@H](CS)C(=O)N[C@@H](CCCNC(=N)N)C(=O)N[C@@H](CCCCN)C(=O)N1CCC[C@H]1C(=O)N[C@H](C(N)=O)C(C)C)C(C)C)C(C)C (H-VCRKPVVCRKPV-NH2)

[11.3, 2]

Which selectivity ratio is reported for this compound? CC[C@H](C)[C@H](N)C(=O)N[C@H](C(=O)N[C@@H](CS)C(=O)N[C@@H](CCCNC(=N)N)C(=O)N[C@@H](CCCCN)C(=O)N1CCC[C@H]1C(=O)N[C@H](C(=O)N[C@H](C(=O)N[C@@H](CS)C(=O)N[C@@H](CCCNC(=N)N)C(=O)N[C@@H](CCCCN)C(=O)N1CCC[C@H]1C(=O)N[C@H](C(=O)N[C@H](C(N)=O)[C@@H](C)CC)[C@@H](C)CC)[C@@H](C)CC)[C@@H](C)CC)[C@@H](C)CC (H-IICRKPIICRKPII-NH2)
4
